amyloid nucleation score by entry:
assay: amyloid nucleation score (Sup35N fusion, yeast selection) (log enrichment); library NNK2; higher = more nucleation; inactive = no reads after selection;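 also: zero at mode of non-aggregating sequences after 7 days selection at 30°C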
Observable: amyloid nucleation score

INSERT INTO assay_data (chain, reported_value) VALUES
  ('ILATSRVILVFCAMCACRWG', 2.98),
  ('SLVLVDFAYSWMSGSAFWFF', -1.09),
  ('TLIDYYFYYCYGKSVDKAGL', -0.749),
  ('DLFVSGTVETFPANWGGMSR', 0.665),
  ('LGIVVVHWTPIIAGW', -1.11);

---

experiment: amyloid nucleation score (Sup35N fusion, yeast selection) (log enrichment); library NNK3; higher = more nucleation; inactive = no reads after selection
Observable: amyloid nucleation score

INSERT INTO results (substance, reported_value) VALUES
  ('KGSFFLDCFGARRRIGLVKF', 'inactive'),
  ('KSQMCNMMRRFYLRCIDLRL', 'inactive'),
  ('LQKCNWRRMVGRNQCWGKAR', 0.89),
  ('SRWSGFCIYRGN', 'inactive'),
  ('IVESQRDASVLRSIPSIRIN', 'inactive'),
  ('LNLLSSSMIWSFVIGNRRVY', 'inactive'),
  ('APIVKL', 'inactive'),
  ('QARKDDDKAQNKCSR', 'inactive'),
  ('LNWMRFYVMDMVTFGVWSDQ', 0.152),
  ('GMVMVLQTTRYNCHMMRELQ', 'inactive'),
  ('IKLFLIHTTPSFPNTREHDL', 'inactive'),
  ('NYWYITKERGSNLVWSNGDE', 'inactive'),
  ('FMLCLMATLRKGLDANLWVT', 'inactive'),
  ('FTSLLAVYSIPLQWGATT', 'inactive'),
  ('GVVKRQRLWTVGMNPKIEAW', 'inactive'),
  ('IPGALGNKAICTRASSRRVG', 'inactive'),
  ('WQITTRTIDRPHYKHPGVPL', 'inactive'),
  ('PFFRASRLWLSLVRMRTLSV', 'inactive'),
  ('GLNLISISFRAGFAGMHRRA', 1.82),
  ('EAVYLSLYKECLCLVRVS', 'inactive'),
  ('GSVRNSDKKWVPIVVYIPLQ', 'inactive'),
  ('YYNSGSLNTYPVNLNLDNFH', 'inactive'),
  ('WRCLYYMQAYSSN', 'inactive'),
  ('NINYTYLESVLIMGYMFREL', 2.21),
  ('QKHNSIFMLAVCCYKSCKQ', 1.07);

All values here come from the supplement of paper PMC12042874.
